Measurement protocol: protein stability index of a GFP-peptide fusion (GPS, HEK-293T) (PSI 1-6); higher = more stable;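 further: 24-mer peptide tiles fused after GFP, lentivirally expressed, FACS-sorted into six equal bins by GFP/DsRed ratio, decoded by Illumina sequencing, PSI is the read-weighted mean bin number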
Study conditions: treatment: DMSO; c terminus: a fixed tail appended
Measured parameter: protein stability index

Use the examples below as a reference point.
{"Sequence data": "YSYASTHRLMTDARRRVCHTEDFQ [CPXM2]", "protein stability index": 2.91}
{"Sequence data": "FIARLQGSILQFNPEVGIFVSIAQ [SMG5]", "protein stability index": 2.77}
{"Sequence data": "TIMSLASLLFVVMFIPETKGCSLE [SLC2A12]", "protein stability index": 3.37}
{"Sequence data": "SSTLVRPIRSRRALPPLRTRSKSD [FAM189A2]", "protein stability index": 4.65}
{"Sequence data": "KGISSHSRSSLMPLRNDVDKRGET [SLC2A12]", "protein stability index": 5}
{"Sequence data": "LMSYERRQILHLITMMALKVLGEL [TENT5D]", "protein stability index": 2.67}

Problem: For SKLVPAIQNAHKNSTGSGRGKKLM [TPRG1] , write its protein stability index.
Solution: 4.6

Problem: Identify the reported protein stability index for the following entry. ISFNKTMTQLSSTLARCAKDILGF [PKD2L1]
Solution: 2.96

* * *

Measurement protocol: protein stability index of a GFP-peptide fusion (GPS, HEK-293T) (PSI 1-6); higher = more stable
Study conditions: treatment: MLN4924 1 uM, 8 h; c terminus: a fixed tail appended
Measured parameter: protein stability index
Just the number.

The following sequences have reported results that may help.
{"Sequence data": "SEPHYGHAGTVYGGVMYISGGITH [KLHL13]", "protein stability index": 2.14}
{"Sequence data": "GISAKVFGATTNYGKDIVKACSLL [ZBED1]", "protein stability index": 2.26}
{"Sequence data": "IREDRDRARLDSMVLLIMKLDQLD [DLC1]", "protein stability index": 2.18}
{"Sequence data": "SGDCDQRFRFPSPILKVQYHPRDQ [RBBP5]", "protein stability index": 3.74}
{"Sequence data": "RVIACQKTAHDSNVLHVARLPNRQ [WDR41]", "protein stability index": 3.65}

Problem: Provide only the value of recorded protein stability index for KKCGRENWTVAFAPDGSYFAWSQG [WSB1]
Solution: 2.22

Problem: Read off the recorded protein stability index for APAHVDEQVFLYENARSGAEAEPE [ZBED1]
Solution: 5.51

Problem: Respond only with protein stability index recorded for VVTAEAVAVLKGEQEKEAQHKDQT [MAP2]
Solution: 5.28

Problem: Given DLTSEDQIVLLKSSAIEVIMLRSN [VDR] , respond with its protein stability index.
Solution: 2.05

Problem: Name the recorded protein stability index of the item LDWISYQVEKNKYDASAIDFSRCD [ELF3] in your answer.
Solution: 3.01

Problem: Name the recorded protein stability index of the sequence listed here: TLKIRNSNFYTVAVTSLSSQIQYM [TMEM106C]
Solution: 2.13

Problem: Supply measured protein stability index of RDIQDENQLLVADVKRLGKQNARF [STX11] in your reply.
Solution: 4.44

Problem: Consider the sequence EESEEERGLEPGKGRHHRGRGGEP [CHGB] . State its measured protein stability index.
Solution: 5.51

Problem: Consider the sequence FLCDLYPLLKLACTNTYVTGLSMI [OR4A15] . State its measured protein stability index.
Solution: 3.25

Problem: Look up and report measured protein stability index for this entry: VTNHNIRLFEDVRSWMFRRGPLNS [TRIM43]
Solution: 2.49

Problem: Please indicate protein stability index recorded for YLKKNHEEEMNALRGQVGGEINVE [KRT17]
Solution: 4.75
